Provide the reported AC50 of each item.
- experimentalSystem: DNA repair protein RAD52 homolog (Homo sapiens)
- Sequence (P43351 whole entry): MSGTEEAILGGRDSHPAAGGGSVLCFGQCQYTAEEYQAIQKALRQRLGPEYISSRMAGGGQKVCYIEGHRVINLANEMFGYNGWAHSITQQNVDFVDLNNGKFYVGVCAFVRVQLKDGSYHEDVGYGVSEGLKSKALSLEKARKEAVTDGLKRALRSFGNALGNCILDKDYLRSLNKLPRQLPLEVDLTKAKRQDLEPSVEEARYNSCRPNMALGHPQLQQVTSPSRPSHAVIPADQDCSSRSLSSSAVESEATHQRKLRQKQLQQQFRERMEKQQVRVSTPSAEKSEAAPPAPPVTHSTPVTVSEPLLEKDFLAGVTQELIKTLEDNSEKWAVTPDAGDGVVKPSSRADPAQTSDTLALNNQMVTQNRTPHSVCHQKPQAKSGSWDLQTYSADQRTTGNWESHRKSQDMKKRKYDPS
- Type: functional, biochemical
Calls of active or inactive are those of the source.

[ask] Write down the reported AC50 (system: DNA repair protein RAD52 homolog (Homo sapiens)) of COc1ccc(C2c3ccc4ccccc4c3Oc3ncn(CCN(C)C)c(=N)c32)cc1 (centres undefined)
[reply] 19.9 µM (active)

[ask] Write down the reported AC50 (system: DNA repair protein RAD52 homolog (Homo sapiens)) of "CC(=O)Nc1cccc(Oc2nc(NCCN(C)C)nc3ccsc23)c1"
[reply] 11.1 µM (active)

[ask] Write down the reported AC50 (system: DNA repair protein RAD52 homolog (Homo sapiens)) of "Cc1sc2nc(CN3CCCCC3)nc(Nc3ccc4c(c3)OCCO4)c2c1C"
[reply] 22.2 µM (active)

[ask] Write down the reported AC50 (system: DNA repair protein RAD52 homolog (Homo sapiens)) of "O=c1c2c(-c3ccccc3)csc2nc2c3ccccc3c(NCCN3CCOCC3)nn12"
[reply] 1.58 µM (active)
